Attribute: pEC50
Assay: Cytotoxicity against human SCL9 cells by MTT assay
Type: functional
Details: read-out: ED50 (the source's name)
pEC50: −log10 of the molar value. Where a name gives a salt, the structure may show the parent alone.
Assay endpoint: pEC50

# Compound, Assay endpoint, Recorded measurement
data = [
    ("C=C1C[C@@H](OC(=O)c2ccccc2)C2[C@](C)(CO)CCC[C@]2(C)[C@@H]1CC/C(C)=C/CO (some centres not stated)", "pEC50", 4.91),
    ("C[C@@]12CC[C@]3(C1)[C@H](CC2=O)C[C@@H](OC(=O)c1ccccc1)[C@H]1[C@](C)(CO)CCC[C@@]13C", "pEC50", 4.42),
    ("CC[C@]1(O)C[C@@H]2CN(CCc3c([nH]c4ccccc34)[C@@](C(=O)OC)(c3cc4c(cc3OC)N(C)[C@H]3[C@@](O)(C(=O)OC)[C@H](OC(C)=O)[C@]5(CC)C=CCN6CC[C@]43[C@@H]65)C2)C1 [VINBLASTINE SULFATE]", "pEC50", 5.28),
    ("CO[C@@]12[C@H](COC(N)=O)C3=C(C(=O)C(C)=C(N)C3=O)N1C[C@@H]1N[C@@H]12", "pEC50", 4.76),
    ("C[C@@]12CC[C@]3(C1)[C@@H](C[C@@H](OC(=O)c1ccccc1)[C@H]1[C@](C)(CO)CCC[C@@]13C)C[C@@H]2O", "pEC50", 4.38),
    ("CC1(C)[C@@H](O)CC[C@@]2(C)[C@H]1[C@H](OC(=O)c1ccccc1)C[C@H]1CC(=O)[C@]3(C)CC[C@]12C3", "pEC50", 4.24),
    ("C[C@@]12CC[C@]3(C1)[C@H](CC2=O)C[C@@H](OC(=O)c1ccccc1)[C@@H]1[C@]3(C)CCC[C@]1(C)C(=O)O [4-EPI-SCOPADULCIC ACID B]", "pEC50", 4.32),
]

* * *

Test: Cytotoxicity against human SCL37'6 cells by MTT assay
Format: functional
Settings: read-out: ED50 (the source's name)
Counter-ions that a name gives are not always drawn.
Consider the cut-off 20 µM. If the recorded EC50 is strictly smaller, the label is 1; if not, the label is 0.

# Compound, Group label
measured = [
    ("C[C@@]12CC[C@]3(C1)[C@H](CC2=O)C[C@@H](OC(=O)c1ccccc1)[C@@H]1[C@]3(C)CCC[C@]1(C)C(=O)O [4-EPI-SCOPADULCIC ACID B]", 0),
    ("C[C@@]12CC[C@]3(C1)[C@@H](C[C@@H](OC(=O)c1ccccc1)[C@H]1[C@](C)(CO)CCC[C@@]13C)C[C@@H]2O", 0),
    ("CC[C@]1(O)C[C@@H]2CN(CCc3c([nH]c4ccccc34)[C@@](C(=O)OC)(c3cc4c(cc3OC)N(C)[C@H]3[C@@](O)(C(=O)OC)[C@H](OC(C)=O)[C@]5(CC)C=CCN6CC[C@]43[C@@H]65)C2)C1 [VINBLASTINE SULFATE]", 1),
    ("C=C1C[C@@H](OC(=O)c2ccccc2)C2[C@](C)(CO)CCC[C@]2(C)[C@@H]1CC/C(C)=C/CO (some centres not stated)", 1),
    ("C[C@@]12CC[C@]3(C1)[C@H](CC2=O)C[C@@H](OC(=O)c1ccccc1)[C@H]1[C@](C)(CO)CCC[C@@]13C", 0),
    ("CO[C@@]12[C@H](COC(N)=O)C3=C(C(=O)C(C)=C(N)C3=O)N1C[C@@H]1N[C@@H]12", 1),
    ("CC1(C)[C@@H](O)CC[C@@]2(C)[C@H]1[C@H](OC(=O)c1ccccc1)C[C@H]1CC(=O)[C@]3(C)CC[C@]12C3", 0),
]
